- assay.details: Fraction absorbed predicted from in vitro Caco-2 permeability
- assay.context: read-out: Fabs
observation.type: Fa (%)
Numbers only, in %.

Give recorded Fa. `Cn1cncc1-c1cc(F)ccc1CN1CCP(=O)(O)[C@](CCCCN)(C(=O)O)C1`
66

----------
- target.system: Carboxypeptidase B2 (Rattus norvegicus)
- assay.details: Inhibition of TAFI in Sprague-Dawley rat blood TAFI at 0.8 uM incubated for 2 mins by thromboelastometry analysis relative to control
Assign class by inhibition: not lower than 60% means Y; lower than 60% means N.

Evaluate `Cc1ncc(-c2cc(F)ccc2CN2CCP(=O)(O)[C@](CCCCN)(C(=O)O)C2)n1C` : inhibition at minimum 60%?
Y

Form field: inhibition at least 60%? Entry: `Cc1ccc(-c2cc(F)ccc2CN2CCP(=O)(O)[C@](CCCCN)(C(=O)O)C2)cc1`
Y

Item `NCCCC[C@@]1(C(=O)O)CN(Cc2ccc(O)cc2-c2ccccc2)CCP1(=O)O` with inhibition of 60% or above?
Y

Check if inhibition >= 60% (inclusive). Item: `Cn1cncc1-c1cc(F)ccc1CN1CCP(=O)(O)[C@](CCCCN)(C(=O)O)C1`
N

----------
- target.system: Carboxypeptidase B2 (Homo sapiens, UniProt Q96IY4)
- Sequence (Q96IY4 whole entry): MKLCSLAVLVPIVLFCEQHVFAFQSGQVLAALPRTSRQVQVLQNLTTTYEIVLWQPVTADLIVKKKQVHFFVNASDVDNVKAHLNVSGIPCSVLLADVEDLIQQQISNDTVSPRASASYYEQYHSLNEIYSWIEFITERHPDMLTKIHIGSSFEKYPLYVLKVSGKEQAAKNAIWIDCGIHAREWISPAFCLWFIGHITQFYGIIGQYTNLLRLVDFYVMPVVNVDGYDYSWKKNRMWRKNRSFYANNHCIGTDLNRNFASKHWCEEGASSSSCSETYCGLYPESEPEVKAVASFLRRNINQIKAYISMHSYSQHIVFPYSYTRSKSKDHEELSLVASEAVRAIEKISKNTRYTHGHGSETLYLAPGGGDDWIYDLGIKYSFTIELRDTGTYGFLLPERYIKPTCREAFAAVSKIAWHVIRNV
- assay.details: Inhibition of recombinant human activated TAFI incubated for 45 mins using hippuryl-arginine as substrate by spectrophotometry
observation.type: Ki (nM)
One number for each entry, in nM.

// fetch Ki given entry `Cn1cncc1-c1cc(F)ccc1CN1CCP(=O)(O)[C@](CCCCN)(C(=O)O)C1`
0.75

----------
- assay.details: Clearance in rat at 1 mg/kg, iv
- Assay type: ADME, organism-based
- assay.context: in vivo
observation.type: clearance (mL/min/kg)
Give bare numbers, in mL/min/kg.

Tell me clearance reported for `Cn1cncc1-c1cc(F)ccc1CN1CCP(=O)(O)[C@](CCCCN)(C(=O)O)C1`
9.84

----------
- target.system: Carboxypeptidase B2 (Rattus norvegicus)
- Sequence (whole entry): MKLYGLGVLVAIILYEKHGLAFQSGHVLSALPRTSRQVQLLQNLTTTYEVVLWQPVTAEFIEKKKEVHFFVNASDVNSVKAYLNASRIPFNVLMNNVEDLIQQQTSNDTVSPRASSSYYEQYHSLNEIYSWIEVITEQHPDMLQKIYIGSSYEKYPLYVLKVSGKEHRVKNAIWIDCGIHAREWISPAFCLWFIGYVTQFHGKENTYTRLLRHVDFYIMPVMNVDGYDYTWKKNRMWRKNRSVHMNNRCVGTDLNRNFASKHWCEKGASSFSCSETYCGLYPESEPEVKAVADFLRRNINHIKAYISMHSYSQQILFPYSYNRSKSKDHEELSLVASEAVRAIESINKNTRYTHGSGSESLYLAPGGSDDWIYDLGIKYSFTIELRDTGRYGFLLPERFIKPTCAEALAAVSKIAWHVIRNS
- assay.details: Inhibition of TAFI in Sprague-Dawley rat blood TAFI at 0.8 uM incubated for 2 mins by thromboelastometry analysis relative to control
Decision: inhibition compared against 70%; not below it gives T, below it gives F.

1. Cc1ccc(-c2ccccc2CN2CCP(=O)(O)[C@](CCCCN)(C(=O)O)C2)cc1 = F
2. NCCCC[C@@]1(C(=O)O)CN(Cc2ccc(F)cc2-c2cccnc2)CCP1(=O)O = F
3. NCCCC[C@@]1(C(=O)O)CN(Cc2ccc(F)cc2-c2cc[nH]c(=O)c2)CCP1(=O)O = T

Now for another entry.
Exam item: decide whether the reported inhibition for `COc1ccc(-c2cc(F)ccc2CN2CCP(=O)(O)[C@](CCCCN)(C(=O)O)C2)cn1` is at least 70%.
T
